# protein stability index per entry
B1: KRT18 (parent)
chain: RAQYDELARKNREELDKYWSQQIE

- Variants of: B1
- assay_summary: protein stability index of a GFP-peptide fusion (GPS, HEK-293T) (PSI 1-6); higher = more stable;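 further: lentivirally expressed fusions sorted by FACS into six bins by GFP to DsRed ratio, PSI derived from sequencing read proportions per bin multiplied by bin number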
- conditions_used: c terminus: a fixed tail appended
Give the figure only, with no unit attached.

Please report protein stability index for the following variant: RAQYPELARKNREELDKYWSQQIE [D5P]
3.73

Please report protein stability index for the following variant: RAQYDELARKNREELDKYVSQQIE [W19V]
4.68

Please report protein stability index for the following variant: RAQYDALARKNREELDKYWSQQIE [E6A]
3.3

Please report protein stability index for the following variant: RAQYVELARKNREELDKYWSQQIE [D5V]
3.57

Please report protein stability index for the following variant: PAQYDELARKNREELDKYWSQQIE [R1P]
3.08

Please report protein stability index for the following variant: RAQYDGLARKNREELDKYWSQQIE [E6G]
3.02

Numbers sourced from the supplement of paper PMC10567573.
